Test system: R213X mutation in the p53 gene, HDQ-P1 cells
test name: Read-through of R213X mutation in HDQ-P1 cells: truncated and full-length p53 by automated capillary electrophoresis western analysis
Assay type: cell-based
test parameters: Homo sapiens, pC100% RT: production of full-length p53, concentration giving the same response as 200 μM G418, 24 h
observed property: EC (100% of 200 uM G418 response)

Cc1cc(C)c2c(N)nc(NC3CCN(Cc4cc(F)ccc4O)CC3)nc2n1 | 1 to 10 µM
Cc1cc(C)c2c(N)nc(NC3CCN(C)CC3)nc2n1 | 1 to 10 µM
Cc1cc(C)c2c(N)nc(N[C@@H]3CCNC3)nc2n1 | 1 to 10 µM

Give R213X mutation in the p53 gene, HDQ-P1 cells EC (100% of 200 uM G418 response) for "CNc1nc(N[C@@H]2CN(C)C[C@H]2O)nc2nc3c(c(C)c12)CCC3"
0.1 to 1 µM

Give R213X mutation in the p53 gene, HDQ-P1 cells EC (100% of 200 uM G418 response) for "Cc1c2c(nc3nc(NC4CCN(Cc5ccccc5O)CC4)nc(N)c13)CCC2"
0.1 to 1 µM

Give R213X mutation in the p53 gene, HDQ-P1 cells EC (100% of 200 uM G418 response) for "CNc1nc(N[C@H]2CN(C)C[C@@H]2F)nc2nc3c(c(C)c12)CCC3"
1 to 10 µM

Give R213X mutation in the p53 gene, HDQ-P1 cells EC (100% of 200 uM G418 response) for "Cc1c2c(nc3nc(NC4CCN(Cc5ccc(C#N)cc5O)CC4)nc(N)c13)CCC2"
1 to 10 µM

Give R213X mutation in the p53 gene, HDQ-P1 cells EC (100% of 200 uM G418 response) for "Cc1c(Cl)c(-c2ccccc2)nc2nc(NC3CCN(C)CC3)nc(N)c12"
1 to 10 µM

Give R213X mutation in the p53 gene, HDQ-P1 cells EC (100% of 200 uM G418 response) for "CC(=O)Nc1ccccc1CN1CCC(Nc2nc(N)c3c(C)cc(C)nc3n2)CC1"
1 to 10 µM

Give R213X mutation in the p53 gene, HDQ-P1 cells EC (100% of 200 uM G418 response) for "CCNc1nc(NC2CCN(C)CC2)nc2nc(C)cc(C)c12"
1 to 10 µM

----------
Each record here notes measured EC (100% of 200 uM G418 response).
System: R213X mutation in the p53 gene, HDQ-P1 cells
test name: Read-through of R213X mutation in HDQ-P1 cells: truncated and full-length p53 by automated capillary electrophoresis western analysis
Type: cell-based
test parameters: Homo sapiens, pC100% RT: production of full-length p53, concentration giving the same response as 200 μM G418, 24 h

CNc1nc(N[C@@H]2CCCN(C)C2)nc2nc3c(c(C)c12)CCC3 | 0.1 to 1 µM
Cc1c2c(nc3nc(NC4CCNCC4)nc(N)c13)CCC2 | 1 to 10 µM
CNc1nc(N[C@H]2CNCC[C@H]2OC)nc2nc(C)cc(C)c12 | 0.1 to 1 µM
CNc1cc(N[C@H]2CN(C)C[C@H]2F)nc2nc3c(c(C)c12)CCC3 | 0.1 to 1 µM
CNc1nc(N[C@H]2CN(C)C[C@@H]2OC)nc2nc3c(c(C)c12)CCC3 | 0.1 to 1 µM
Cc1c2c(nc3nc(NCCCN4CCOCC4)nc(N)c13)CCC2 | 1 to 10 µM
Cc1cc(C)c2c(N)nc(NC3CCN(Cc4ccccc4O)CC3)nc2n1 | 1 to 10 µM
CNc1nc(NC2CCN(Cc3ccccc3O)CC2)nc2nc3c(c(C)c12)CCC3 | 0.1 to 1 µM

Using the record for "Cc1cc(C)c2c(N)nc(N[C@@H]3CCCNC3)nc2n1" , report its EC (100% of 200 uM G418 response).
1 to 10 µM

Using the record for "CNc1nc(N[C@H]2CN(C)C[C@@H]2OC)nc2nc(C)cc(C)c12" , report its EC (100% of 200 uM G418 response).
1 to 10 µM

Using the record for "Cc1c2c(nc3nc(NC4CCN(Cc5ccc(C#N)cc5)CC4)nc(N)c13)CCC2" , report its EC (100% of 200 uM G418 response).
0.1 to 1 µM
